# Test system: Echinochloa crus-galli
# Protocol details: Pre-emergence herbicidal effect
# Assay type: in vivo
# Condition summary: Dosage 80 g/ha, scored visually after 3 weeks
# Source text: Seeds of monocotyledonous and dicotyledonous weed plants and crop plants are laid out in wood-fiber pots in sandy loam and covered with soil. […] After the treatment, the pots are placed in a greenhouse and kept under good growth conditions for the trial plants. The damage to the test plants is scored visually after a test period of 3 weeks by comparison with untreated controls (herbicidal activity in percent (%): 100% activity=the plants have died, 0% activity=like control plants). […]
Outcome measure: ECHCG pre-emergence efficacy (herbicidal activity) (%)
State the answer as a number, implicitly in %.

Take a look at these entries with their results.
{"Compound": "Cc1cc2c(s1)CCC[C@H]2Nc1ncc2c(n1)CCCS2(=O)=O", "Experimental target": "Echinochloa crus-galli", "Reading unit": "%", "Measured value": 100}
{"Compound": "Cc1cc2c(s1)C(Nc1ncc3c(n1)CCCC3=O)CCC2 (racemic)", "Experimental target": "Echinochloa crus-galli", "Reading unit": "%", "Measured value": 90}
{"Compound": "CC(=O)c1cnc(NC2CCCc3sc(C)cc32)nc1N (centres unmarked) [compound 283]", "Experimental target": "Echinochloa crus-galli", "Reading unit": "%", "Measured value": 100}
{"Compound": "Cc1cc2c(s1)CCCC2Nc1ncc2c(n1)CCCC2=O (racemic)", "Experimental target": "Echinochloa crus-galli", "Reading unit": "%", "Measured value": 100}

Next item in the queue.
Give ECHCG pre-emergence efficacy (herbicidal activity) for CC(=O)c1cnc(NC2CCCc3sc(C)cc32)nc1N (racemic) [compound 150]
90

====

# System: Matricaria inodora
# Protocol details: Pre-emergence herbicidal effect
# Assay type: in vivo
# Condition summary: Dosage 80 g/ha, scored visually after 3 weeks
# Excerpt: Seeds of monocotyledonous and dicotyledonous weed plants and crop plants are laid out in wood-fiber pots in sandy loam and covered with soil. […] After the treatment, the pots are placed in a greenhouse and kept under good growth conditions for the trial plants. The damage to the test plants is scored visually after a test period of 3 weeks by comparison with untreated controls (herbicidal activity in percent (%): 100% activity=the plants have died, 0% activity=like control plants). […]
Readings of MATIN pre-emergence efficacy (herbicidal activity) for the listed compounds
Respond numerically; units are % and should not be typed.

{"Compound": "CS(=O)(=O)c1cnc(N[C@@H]2CCCc3sccc32)nc1N", "Experimental target": "Matricaria inodora", "Reading unit": "%", "Measured value": 100}

Using known records, supply MATIN pre-emergence efficacy (herbicidal activity) for Cc1cc2c(s1)CCCC2Nc1nc(N)c(-c2cccc(F)c2)c(C(F)F)n1 (racemic)
90

Read the entry Cc1cc2c(s1)CCCC2Nc1nc(N)c(-c2cncc(Cl)c2)c(C(F)F)n1 (racemic) and write its reported MATIN pre-emergence efficacy (herbicidal activity).
80

Return MATIN pre-emergence efficacy (herbicidal activity) for the following compound: Cc1cc2c(s1)CC(C)C2Nc1ncc(S(C)(=O)=O)c(N)n1 (racemic)
100

Recall and state the measured MATIN pre-emergence efficacy (herbicidal activity) for Cc1cc2c(s1)CCCC2Nc1ncc(-c2cccc(C(F)(F)F)c2)c(N)n1 (racemic) .
90

Consider the compound Cc1cc2c(s1)CCCC2Nc1ncc(S(C)(=O)=O)c(N)n1 (racemic) and give its recorded MATIN pre-emergence efficacy (herbicidal activity).
100

Specify MATIN pre-emergence efficacy (herbicidal activity) for Cc1cc2c(s1)CCC2Nc1ncc(S(=O)(=O)C(C)C)c(N)n1 (racemic) and stop.
100

Supply MATIN pre-emergence efficacy (herbicidal activity) value. Item: Cc1cc2c(s1)CCCC2Nc1ncc(C(F)(F)F)c(N)n1 (racemic) [compound 257]
100

Annotate the compound Cc1cc2c(s1)C(Nc1ncc(C(F)(F)F)c(N)n1)CCC2 (racemic) with its measured MATIN pre-emergence efficacy (herbicidal activity).
100

Hello, please tell me recorded MATIN pre-emergence efficacy (herbicidal activity) for this one: N=S(=O)(c1ccccc1)c1cnc(NC2CCCc3sccc32)nc1N (racemic)
90

Given Nc1nc(NC2CCc3ccsc32)ncc1C(F)(F)F (racemic) , respond with its MATIN pre-emergence efficacy (herbicidal activity).
100

For the compound Cc1cc2c(s1)CCCC2Nc1nc(N)c(Br)c(C(F)F)n1 (racemic) [compound 314] , give its reported MATIN pre-emergence efficacy (herbicidal activity).
90

Name the recorded MATIN pre-emergence efficacy (herbicidal activity) of the compound listed here: CN=C(C)c1cnc(NC2CCCc3sc(C)cc32)nc1N (centres unmarked)
90

Answer with reported MATIN pre-emergence efficacy (herbicidal activity) of CC(=O)c1cnc(NC2CCCc3sc(C)cc32)nc1N (centres unmarked)
100

Give reported MATIN pre-emergence efficacy (herbicidal activity) value for Cc1cc2c(s1)C(Nc1ncc(S(C)(=O)=O)c(N)n1)CCC2 (racemic)
100

Quickly give me recorded MATIN pre-emergence efficacy (herbicidal activity) for CS(=O)(=O)c1cnc(NC2CCCc3ccsc32)nc1N (racemic)
100

Tell us which MATIN pre-emergence efficacy (herbicidal activity) value is on record for N#Cc1cc2c(s1)C(Nc1ncc(C(F)(F)F)c(N)n1)CCC2 (racemic)
100
